Target: T1, 293 cells expressing recombinant human VTCN1 (Homo sapiens, UniProt Q7Z7D3)
T1 construct: expressed in transfected cells; host or cells: 293 cells
T1 sequence (Q7Z7D3 25-282): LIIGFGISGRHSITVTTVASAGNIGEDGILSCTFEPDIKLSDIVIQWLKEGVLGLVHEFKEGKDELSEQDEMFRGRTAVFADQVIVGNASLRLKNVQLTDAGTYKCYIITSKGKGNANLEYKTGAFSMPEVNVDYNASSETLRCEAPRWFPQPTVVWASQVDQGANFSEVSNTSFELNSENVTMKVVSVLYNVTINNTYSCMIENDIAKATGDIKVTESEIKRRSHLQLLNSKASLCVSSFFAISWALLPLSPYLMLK
Experiment: Cell-based competition binding FACS assay against 6D9
Settings: 6D9 10 μg/ml, human antibody 1 μg/ml
Procedure: To assess if these human VTCN1 antibodies bind to same or different regions of VTCN1 protein, a cell-based competition binding FACS assay was performed. […] The cells were then resuspend in FACS buffer with DAPI, and analyzed by flow cytometry.
endpoint: competition with 6D9 for binding to VTCN1

molecule	data value
16H12_60B4: fully human VTCN1 antibody; VH SEQ ID NO: 283, VL SEQ ID NO: 286 (antibody, V domains shown) VH: QVQVVQSGAEVKKPGSSVKVSCKASGDTFSNYAISWVRQAPGQGLEWMGGIIPIFGITNYAQKFQGRVTIIADKSTRTAYMELSSLRSEDTAVYYCSRGGPYFDYWGQGILVTVSS VL: EIVMTQSPATLSVSPGERATLSCRASQSVSSNLAWYQQKPGQAPRLLIYGASTRATGIPARFSGSGSGTEFTLTISSLQSEDFAVYYCQQYKKWPFTFGPGTKVDIK	do not compete with 6D9
14D6_60B5: fully human VTCN1 antibody; VH SEQ ID NO: 278, VL SEQ ID NO: 281 (antibody, V domains shown) VH: QVQLVHSGAEVKRPGSSVKVSCKASGGTFSSYAISWVRQAPGQGLEWMGGIIPIFGIANYAQKFQGRVTIIADKSTRTAYMELSSLRSEDTAVYYCARGGPYFDYWGQGILVTVSS VL: EIVMTQSPATLSVSPGERATLSCRASQSVSSNLAWYQQKPGQAPRLLIYGASTRATGIPARFSGSGSGTEFTLTISSLQSEDFAVYYCQQYNKWPFTFGPGTKVDIK	do not compete with 6D9
12B5_44B1: fully human VTCN1 antibody; VH SEQ ID NO: 264, VL SEQ ID NO: 268 (antibody, V domains shown) VH: QVQLVQSGAEVKKPGSSMKVSCKASGDTFSSYAISWVRQAPGQGLEWMAGIIPVFGTAHNAQKFQGRVTITADKSTSTAYMELSSLRSEDTAVYYCTRGGPYFDYWGQGTLVTVSS VL: EIVMTQSPATLSVSPGERAALSCRASQSVSSNLAWYQQKPGQAPRLLIYGVSTRATGIPDRFNGSGSGTEFTLTISSLQSEDFGAYYCQQYKKWPFIFGPGTKLEIK	do not compete with 6D9
